# target of assay: Potassium channel subfamily K member 3 (Homo sapiens) (UniProt O14649)
# Sequence (O14649 whole entry, looked up): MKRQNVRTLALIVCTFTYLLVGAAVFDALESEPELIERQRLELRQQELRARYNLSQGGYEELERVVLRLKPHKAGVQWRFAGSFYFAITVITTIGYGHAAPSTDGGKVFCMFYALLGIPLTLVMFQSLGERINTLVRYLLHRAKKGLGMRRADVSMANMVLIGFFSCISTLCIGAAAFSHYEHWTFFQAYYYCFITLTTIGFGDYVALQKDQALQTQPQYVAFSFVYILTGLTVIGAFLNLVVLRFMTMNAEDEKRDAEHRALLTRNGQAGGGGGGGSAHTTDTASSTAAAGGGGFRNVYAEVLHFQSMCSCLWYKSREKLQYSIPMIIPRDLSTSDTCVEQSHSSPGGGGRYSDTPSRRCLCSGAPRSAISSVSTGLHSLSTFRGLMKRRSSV
# test summary: human KCNK3 channel inhibitors, primary screen, CHO cells, FluxOR thallium flux, B-score (AID 602410);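 as to B-score: more negative B-score means stronger inhibition of thallium flux through KCNK3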
# measurement setup: FluxOR fluorescence, at 10 µM
The campaign covered roughly 340,000 compounds. About 2,800 (0.82%) were called active.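 The calls were made as follows: active = B-score under library mean minus 4 SD, starting fluorescence ratio at most library mean plus 5 SD; inactive = the rest.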 The entries come from a sample that favours actives as a whole.
Outcomes: T = active, F = inactive

compound	target of assay	class name
O=C(c1cc(COc2cccc(C(F)(F)F)c2)on1)N1CCSCC1	Potassium channel subfamily K member 3 (Homo sapiens) (UniProt O14649)	F
Cc1cc(C)c(C#N)c(SCc2ccccc2C(=O)O)n1	Potassium channel subfamily K member 3 (Homo sapiens) (UniProt O14649)	F
COc1ccc2sc(-c3ccc(N(C)C)cc3)c(C#CCO)c2c1	Potassium channel subfamily K member 3 (Homo sapiens) (UniProt O14649)	F
C=CCn1cc(Cl)cc(C(=O)Nc2ccccc2)c1=O	Potassium channel subfamily K member 3 (Homo sapiens) (UniProt O14649)	F
CC(NC(=S)Nc1ccccc1)C(c1cccs1)N1CCOCC1 (stereo not given)	Potassium channel subfamily K member 3 (Homo sapiens) (UniProt O14649)	F
COc1ccc(CN(C)C(C)C(=O)NC2CCCc3ccccc32)cc1 (stereo not given)	Potassium channel subfamily K member 3 (Homo sapiens) (UniProt O14649)	F
O=C(NCCc1c[nH]c2ccccc12)c1cc2ccccc2oc1=O	Potassium channel subfamily K member 3 (Homo sapiens) (UniProt O14649)	F
CN(CCNC(=O)c1cc2c(-c3ccccc3F)nn(C)c2s1)C1CCCCC1	Potassium channel subfamily K member 3 (Homo sapiens) (UniProt O14649)	F
O=C(CC1NCCNC1=O)Nc1cc(Cl)cc(Cl)c1 (stereo not given)	Potassium channel subfamily K member 3 (Homo sapiens) (UniProt O14649)	F
Cn1nc(-c2ccc(Cl)cc2)c2cc(C(=O)NCc3ccco3)sc21	Potassium channel subfamily K member 3 (Homo sapiens) (UniProt O14649)	T
COc1ccc(N(CC(=O)Nc2cc(OC)ccc2OC)S(=O)(=O)c2c(C)noc2C)cc1	Potassium channel subfamily K member 3 (Homo sapiens) (UniProt O14649)	F
CCn1c(SCC(=O)NC2CCCC2)nnc1-c1ccoc1C	Potassium channel subfamily K member 3 (Homo sapiens) (UniProt O14649)	F
COc1ccc(OC)c(C(c2nnnn2C(C)(C)C)N2CCc3ccccc3C2)c1 (stereo not given)	Potassium channel subfamily K member 3 (Homo sapiens) (UniProt O14649)	F
Cc1cccc(NC(=O)c2ccc(S(=O)(=O)N(C)c3ccccc3)cc2)n1	Potassium channel subfamily K member 3 (Homo sapiens) (UniProt O14649)	F
COC(=O)c1ccccc1Sc1c(/C=N/OCc2ccc(Cl)cc2)c(C(F)(F)F)nn1C	Potassium channel subfamily K member 3 (Homo sapiens) (UniProt O14649)	F
CC(C(=O)NCC1CCCCC1)N(C)Cc1cccc(Cl)c1 (stereo not given)	Potassium channel subfamily K member 3 (Homo sapiens) (UniProt O14649)	T
Cc1cccc(C)c1N1CCN(S(=O)(=O)N2CCOCC2)CC1	Potassium channel subfamily K member 3 (Homo sapiens) (UniProt O14649)	F
CCOc1ccc(Br)cc1S(=O)(=O)Nc1ccc(C(=O)OC(C)C(=O)N(C)c2ccccc2)cc1 (stereo not given)	Potassium channel subfamily K member 3 (Homo sapiens) (UniProt O14649)	F
COc1ccc(CN2CCN(C(=O)c3cc(C4CC4)nn3-c3ccccc3)CC2)cc1F	Potassium channel subfamily K member 3 (Homo sapiens) (UniProt O14649)	F
O=c1c(-c2ccc3c(c2)OCCO3)c(C(F)(F)F)oc2cc(O)cc(O)c12	Potassium channel subfamily K member 3 (Homo sapiens) (UniProt O14649)	F
COC(=O)c1nc(NC(=O)c2ccc(C(C)(C)C)cc2)n[nH]1	Potassium channel subfamily K member 3 (Homo sapiens) (UniProt O14649)	F
Cc1cccc(C)c1N1CCN(S(=O)(=O)N2CCCCC2)CC1	Potassium channel subfamily K member 3 (Homo sapiens) (UniProt O14649)	T
COC(=O)c1ccc(CNC(=O)C2CCC(=O)N(Cc3ccccn3)C2)cc1 (stereo not given)	Potassium channel subfamily K member 3 (Homo sapiens) (UniProt O14649)	F
Cc1nonc1C1CCCN1C(=O)c1cc(COc2cccc(C(F)(F)F)c2)on1 (stereo not given)	Potassium channel subfamily K member 3 (Homo sapiens) (UniProt O14649)	T
O=C(N/N=C/c1cccc(OCc2ccccc2)c1)c1ccc(Br)o1	Potassium channel subfamily K member 3 (Homo sapiens) (UniProt O14649)	T
CC(Nc1nc(N2CCCC2)nc2ccccc12)c1ccccc1 (stereo not given)	Potassium channel subfamily K member 3 (Homo sapiens) (UniProt O14649)	F
Cc1ccc(CSc2nsc(C)c2C#N)cc1	Potassium channel subfamily K member 3 (Homo sapiens) (UniProt O14649)	F
N#Cc1c(NC(=O)CSc2nc3ccccc3c(=O)n2Cc2ccco2)sc2c1CCCC2	Potassium channel subfamily K member 3 (Homo sapiens) (UniProt O14649)	F
O=C(CC1NCCc2ccccc21)Nc1cccc(Cl)c1 (stereo not given)	Potassium channel subfamily K member 3 (Homo sapiens) (UniProt O14649)	T
CCOc1ccc(OCCSc2nc3ccccc3n2CC(=O)O)cc1	Potassium channel subfamily K member 3 (Homo sapiens) (UniProt O14649)	F
O=C(NCCc1c[nH]c2ccccc12)c1cccc(Br)c1	Potassium channel subfamily K member 3 (Homo sapiens) (UniProt O14649)	T
COC(=O)c1ccc(-n2cnc3ccccc32)nc1	Potassium channel subfamily K member 3 (Homo sapiens) (UniProt O14649)	F
COc1ccc(Cl)cc1NC(=O)CN(C)C(=O)c1cc(-c2cccs2)nn1-c1ccccc1	Potassium channel subfamily K member 3 (Homo sapiens) (UniProt O14649)	F
COc1ccccc1C(c1nnnn1C(C)(C)C)N1CCN(Cc2ccccc2)CC1 (stereo not given)	Potassium channel subfamily K member 3 (Homo sapiens) (UniProt O14649)	T
CCOC(=O)c1cc2cc(-c3c(C(=O)OCC)oc4cc(O)cc(O)c4c3=O)ccc2o1	Potassium channel subfamily K member 3 (Homo sapiens) (UniProt O14649)	T
COc1ccccc1N1CCN(c2nc(C)cc(=O)[nH]2)CC1	Potassium channel subfamily K member 3 (Homo sapiens) (UniProt O14649)	F
CCC(=O)c1ccc(OC(=O)/C=C/c2cc(OC)c(OC)c(OC)c2)cc1	Potassium channel subfamily K member 3 (Homo sapiens) (UniProt O14649)	F
O=C(N/N=C/c1cccc(O)c1)c1cc2c(ccc3ccccc32)o1	Potassium channel subfamily K member 3 (Homo sapiens) (UniProt O14649)	F
COc1ccccc1OCC(=O)Nc1ccccc1C(=O)NC1CC1	Potassium channel subfamily K member 3 (Homo sapiens) (UniProt O14649)	F
COc1ccccc1N1CCN(C(=O)c2cn(-c3ccccc3)nc2-c2cccnc2)CC1	Potassium channel subfamily K member 3 (Homo sapiens) (UniProt O14649)	F
COc1ccccc1N1CCN(C(=O)c2cc3c(-c4ccc(Cl)cc4)nn(C)c3s2)CC1	Potassium channel subfamily K member 3 (Homo sapiens) (UniProt O14649)	T
Cc1cc(C)cc(NC(=S)NCCc2c[nH]c3ccccc23)c1	Potassium channel subfamily K member 3 (Homo sapiens) (UniProt O14649)	F
CS(=O)(=O)N1CCCC(C(=O)N2CCOCC2)C1 (stereo not given)	Potassium channel subfamily K member 3 (Homo sapiens) (UniProt O14649)	F
COc1ccccc1NC(=O)CCC(=O)N1CC(C)Oc2ccc(C)cc21 (stereo not given)	Potassium channel subfamily K member 3 (Homo sapiens) (UniProt O14649)	F
CCCn1nnc(NC(=O)COc2ccc(CC)cc2)n1	Potassium channel subfamily K member 3 (Homo sapiens) (UniProt O14649)	F
